Cited source: patent US20240392024A1

EC50 by entry:
Molecular target: T1, human TNFR2 on the cell membrane (human, UniProt P20333 23-461)
T1 construct: whole, on cells; One molecule for all cell formats; also called TNFR2-CHO cells; CHO-TNFR2
T1 sequence (looked up): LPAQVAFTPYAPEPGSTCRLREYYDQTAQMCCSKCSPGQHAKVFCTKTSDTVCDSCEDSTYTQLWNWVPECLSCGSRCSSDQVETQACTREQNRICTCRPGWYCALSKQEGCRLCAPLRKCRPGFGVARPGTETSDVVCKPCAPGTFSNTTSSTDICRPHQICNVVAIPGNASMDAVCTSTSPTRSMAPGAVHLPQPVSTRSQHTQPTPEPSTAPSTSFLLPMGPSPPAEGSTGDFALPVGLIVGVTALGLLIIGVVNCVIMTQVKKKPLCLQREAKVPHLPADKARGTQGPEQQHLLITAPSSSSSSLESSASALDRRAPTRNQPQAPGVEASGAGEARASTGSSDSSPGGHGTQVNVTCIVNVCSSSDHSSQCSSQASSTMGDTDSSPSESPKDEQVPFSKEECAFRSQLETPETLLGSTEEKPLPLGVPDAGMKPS
Assay: flow cytometry on Jurkat-TNFR2 cells
Report only the number, with the unit µg/mL understood.

Observe how each entry below is paired with its result.
[[record]]
binder = "human-mouse chimeric TNFR2 monoclonal antibody 7F2-hFc (antibody, V domains shown, Mouse V regions of clone 7F2 with human constant regions) VH: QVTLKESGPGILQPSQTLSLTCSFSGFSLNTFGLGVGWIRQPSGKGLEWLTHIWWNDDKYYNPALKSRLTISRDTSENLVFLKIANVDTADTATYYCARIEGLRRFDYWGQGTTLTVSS VL: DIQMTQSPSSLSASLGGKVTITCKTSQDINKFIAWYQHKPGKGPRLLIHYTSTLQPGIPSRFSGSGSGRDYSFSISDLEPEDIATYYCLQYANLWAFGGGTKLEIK"
readout_value = 0.0243

[[record]]
binder = "human-mouse chimeric TNFR2 monoclonal antibody 27F6-hFc (antibody, V domains shown, Mouse V regions of clone 27F6 with human constant regions) VH: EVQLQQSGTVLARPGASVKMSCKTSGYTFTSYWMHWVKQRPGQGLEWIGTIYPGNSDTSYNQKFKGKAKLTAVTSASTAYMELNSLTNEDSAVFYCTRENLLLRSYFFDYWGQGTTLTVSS VL: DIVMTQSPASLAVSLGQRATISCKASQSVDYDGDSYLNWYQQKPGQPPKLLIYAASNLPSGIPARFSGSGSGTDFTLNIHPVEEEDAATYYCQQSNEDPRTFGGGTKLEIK"
readout_value = 0.0357

[[record]]
binder = "human-mouse chimeric TNFR2 monoclonal antibody 12E12-hFc (antibody, V domains shown, Mouse V regions of clone 12E12 with human constant regions; also called human-mouse chimeric 12E12 antibody) VH: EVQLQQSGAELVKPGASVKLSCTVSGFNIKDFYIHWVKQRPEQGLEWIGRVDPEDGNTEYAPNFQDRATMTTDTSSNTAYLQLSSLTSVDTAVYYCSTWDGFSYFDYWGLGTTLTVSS VL: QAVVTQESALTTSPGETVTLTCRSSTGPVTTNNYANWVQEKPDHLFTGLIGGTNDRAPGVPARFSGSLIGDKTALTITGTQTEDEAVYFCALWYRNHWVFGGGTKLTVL"
readout_value = 0.0123


Entry human-mouse chimeric TNFR2 monoclonal antibody 29A1-hFc (antibody, V domains shown, Mouse V regions of clone 29A1 with human constant regions) VH: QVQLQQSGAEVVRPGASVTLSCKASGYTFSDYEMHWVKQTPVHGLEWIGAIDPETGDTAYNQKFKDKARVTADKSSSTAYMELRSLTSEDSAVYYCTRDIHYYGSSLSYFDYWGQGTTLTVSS VL: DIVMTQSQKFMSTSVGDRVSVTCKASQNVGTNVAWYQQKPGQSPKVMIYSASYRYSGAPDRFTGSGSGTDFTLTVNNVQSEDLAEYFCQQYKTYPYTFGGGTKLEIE ; EC50 = 14.2

Entry human-mouse chimeric TNFR2 monoclonal antibody 33C12-hFc (antibody, V domains shown, Mouse V regions of clone 33C12 with human constant regions; also called human-mouse chimeric 33C12 antibody) VH: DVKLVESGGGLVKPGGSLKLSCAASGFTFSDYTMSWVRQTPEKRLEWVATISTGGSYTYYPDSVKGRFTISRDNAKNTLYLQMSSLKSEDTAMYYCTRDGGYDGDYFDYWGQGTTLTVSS VL: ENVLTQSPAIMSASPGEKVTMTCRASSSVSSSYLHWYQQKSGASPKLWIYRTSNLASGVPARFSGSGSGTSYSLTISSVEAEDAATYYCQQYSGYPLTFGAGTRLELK ; EC50 = 0.658
